// data source = patent US20050245438A1

Target: T1, cloned human SRIF receptor SSTR2 (human, UniProt P30874 1-369)
T1 construct: whole, on cells; assayed as cryostat sections of membrane pellets of the transfected cells; also called hSSTR2
T1 sequence (P30874 whole entry): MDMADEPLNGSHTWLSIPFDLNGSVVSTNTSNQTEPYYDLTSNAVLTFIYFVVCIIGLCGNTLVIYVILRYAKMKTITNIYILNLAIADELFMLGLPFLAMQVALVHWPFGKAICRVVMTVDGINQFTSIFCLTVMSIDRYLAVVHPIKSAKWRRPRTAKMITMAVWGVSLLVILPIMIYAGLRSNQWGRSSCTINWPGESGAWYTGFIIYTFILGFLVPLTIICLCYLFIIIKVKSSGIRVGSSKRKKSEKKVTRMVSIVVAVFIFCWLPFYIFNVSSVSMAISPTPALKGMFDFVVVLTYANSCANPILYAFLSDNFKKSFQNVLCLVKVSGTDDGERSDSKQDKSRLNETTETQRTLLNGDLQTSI
Assay: radioligand displacement (125I-[Leu8,D-Trp22,Tyr25]SRIF-28), membrane pellet sections
Numbered stars: 1 amine (or outer) side, 2 acyl side, 3 side chain; on linkers, the order of the positions; unused ones are H or OH. Bridge positions count the residues as written; N and C are the ends. Square brackets hold non-standard residues; d marks the D form. * marks the point of attachment. (2S,3R)βMe2Nal = L-threo-(2S,3R)-β-methyl-2-naphthylalanine, (2S,3R)-2-amino-3-(naphthalen-2-yl)butanoic acid, C[C@H](c1ccc2ccccc2c1)[C@H](N[*:1])C(=O)[*:2]; d2Nal(3S-Me) = C[C@@H](c1ccc2ccccc2c1)[C@@H](N)C(=O)O; Phe(4-NH2) = Nc1ccc(C[C@H](N)C(=O)O)cc1; Carbamoyl = NC(=O)*
QUANTITY KIND: IC50 (nM)

// worked examples, IC50 included
[
  {
    "BINDER": "H-YCF[Phe(4-NH2)][dW]KTFC-OH (disulfide 2-9, synthetic cyclic nonapeptide; also called Peptide No. 7) [(cyclo)H-Tyr-Cys-Phe-4Aph-D-Trp-Lys-Thr-Phe-Cys-OH]",
    "IC50 [nM]": 56
  },
  {
    "BINDER": "H-[dC]FY[(2S,3R)βMe2Nal]KTFC-OH (disulfide 1-8; SMILES C[C@H](c1ccc2ccccc2c1)[C@@H]1NC(=O)[C@H](Cc2ccc(O)cc2)NC(=O)[C@H](Cc2ccccc2)NC(=O)[C@H](N)CSSC[C@@H](C(=O)O)NC(=O)[C@H](Cc2ccccc2)NC(=O)[C@H]([C@@H](C)O)NC(=O)[C@H](CCCCN)NC1=O, also called Peptide No. 16A; Peptide 16A) [(cyclo)H-D-Cys-Phe-Tyr-threo-(2S,3R)C^βMe-2Nal-Lys-Thr-Phe-Cys-OH]",
    "IC50 [nM]": 339
  },
  {
    "BINDER": "Carbamoyl-YCFAWKTFC-OH (disulfide 2-9, synthetic cyclic nonapeptide; also called Peptide No. 13B) [(cyclo)Cbm-Tyr-Cys-Phe-Ala-Trp-Lys-Thr-Phe-Cys-OH]",
    "IC50 [nM]": 700
  },
  {
    "BINDER": "Carbamoyl-CF[Phe(4-NH2)][dW]KTFC-OH (disulfide 1-8; SMILES C[C@@H](O)[C@@H]1NC(=O)[C@H](CCCCN)NC(=O)[C@@H](Cc2c[nH]c3ccccc23)NC(=O)[C@H](Cc2ccc(N)cc2)NC(=O)[C@H](Cc2ccccc2)NC(=O)[C@@H](NC(N)=O)CSSC[C@@H](C(=O)O)NC(=O)[C@H](Cc2ccccc2)NC1=O, synthetic cyclic octapeptide; also called Peptide No. 4) [(cyclo)Cbm-Cys-Phe-4Aph-D-Trp-Lys-Thr-Phe-Cys-OH]",
    "IC50 [nM]": 120
  }
]

[P] Carbamoyl-YCF[Phe(4-NH2)]WKTFC-OH (disulfide 2-9, synthetic cyclic nonapeptide; also called Peptide No. 8) [(cyclo)Cbm-Tyr-Cys-Phe-4Aph-Trp-Lys-Thr-Phe-Cys-OH]
[Q] H-YCFA[dW]KTFC-OH (disulfide 2-9, synthetic cyclic nonapeptide; also called Peptide No. 14) [(cyclo)H-Tyr-Cys-Phe-Ala-D-Trp-Lys-Thr-Phe-Cys-OH]
[R] H-[dC]FY[d2Nal(3S-Me)]KTFC-OH (disulfide 1-8, also called Peptide No. 16) [(cyclo)H-D-Cys-Phe-Tyr-threo-(2R,3S)C^βMe-2Nal-Lys-Thr-Phe-Cys-OH]
Task item: Rank items: key IC50, increasing. Sort the labels as requested; that list is your answer.
Reply: R, Q, P
